# Tested on: SNB-78
# assay-procedure: NCI tumour cell line growth inhibition, 48 h
Calls of active or inactive are those of the source. No stated cut-off is given here; in the data, active = GI50 up to about 1.1 µM and inactive = higher.
Measured GI50 by item

Worked set:
molecule="c1ccc(C2C3=C(Nc4ncnn42)c2ccccc2C3)cc1 (stereo not given)" measured_property=GI50 result="> 100 µM (inactive)"
molecule=Cc1cc2c(C)nn(Cc3ccccc3)c2c(C(=O)O)c1C measured_property=GI50 result="> 100 µM (inactive)"
molecule="CC(C)=C1CCC(CN(C)C)C1=O (stereo not given)" measured_property=GI50 result="> 10 µM (inactive)"
molecule=COc1cc2cc(c1Cl)N(C)C(=O)C[C@H](OC(=O)[C@H](C)N(C)C(C)=O)[C@]1(C)O[C@H]1[C@H](C)[C@@H]1C[C@@](O)(NC(=O)O1)[C@H](OC)/C=C/C=C(/C)C2 measured_property=GI50 result="0.025 µM (active)"
molecule="COc1cc2c(cc1OC)[C@@H](Nc1ccc(C#N)cc1)C1COC(=O)[C@@H]1C2c1cc(OC)c(O)c(OC)c1 (stereo not given in full)" measured_property=GI50 result="5.79 µM (inactive)"

QUERY: Form field: GI50 recorded for N#CCc1nnc(N)o1 with SNB-78 (enter value)
RESULT: > 100 µM (inactive)

QUERY: Form field: GI50 recorded for CCOC(=O)CC1=N/C(=N/c2cc(Cl)ccc2Cl)SC1 with SNB-78 (enter value)
RESULT: > 100 µM (inactive)

====

# System: DU-145
# assay-procedure: NCI tumour cell line growth inhibition, 48 h
The source made the active and inactive calls. Rule as the data show it: active = GI50 up to about 1.1 µM and inactive = higher.
measured-property: GI50

Worked set:
compound=COC(=O)[C@@H](NC(=O)N(Cc1ccccc1)C[C@H](CC(C)C)NC(=O)[C@@H](NC(=O)OC(C)(C)C)C(C)C)C(C)C result="> 100 µM (inactive)"
compound="O=C(O)CN1C(=O)OC(c2ccccc2)C1=O (stereo not given)" result="> 100 µM (inactive)"
compound=COc1ccc2cc(/C=N\NC(=O)Nc3cccc4ccccc34)ccc2c1 result="58.2 µM (inactive)"
compound="CC1=NN(c2cccc(S(=O)(=O)O)c2)C2(C1)C(Cl)C(=O)N2c1nc2ccccc2s1 (stereo not given)" result="11.3 µM (inactive)"

Attention now turns to another entry.
QUERY: # GI50 lookup, item CC(C)NCC(O)c1ccc(O)c2ncccc12 (stereo not given)
RESULT: 37.2 µM (inactive)

====

# Test system: BT-549
# assay-procedure: NCI tumour cell line growth inhibition, 48 h
Activity calls are given as the source filed them. No stated cut-off is given here; in the data, active = GI50 up to about 1.1 µM and inactive = higher.
measured-property: GI50

Worked set:
compound=Cn1c(-c2cccc(N)c2)[n+](C)c2ccccc21 result="> 100 µM (inactive)"
compound="COc1ccc(C2CC(c3ccc4ccccc4c3O)=NN2)cc1OC (stereo unspecified)" result="23.5 µM (inactive)"

QUERY: # GI50 lookup, item CC(NNC(=O)c1cc[n+]([BH2-]C#N)cc1)c1ccccc1 (stereo unspecified)
RESULT: > 100 µM (inactive)

QUERY: # GI50 lookup, item CCCC1=NC(C(F)(F)F)(C(F)(F)F)N=C(N2CCOCC2)O1
RESULT: > 100 µM (inactive)

QUERY: # GI50 lookup, item COc1cccc(Nc2nc(-c3cccs3)nc3ccc(Br)cc23)c1
RESULT: > 100 µM (inactive)

QUERY: # GI50 lookup, item CO/C(N)=C(C#N)/N=C/c1cccnc1
RESULT: > 100 µM (inactive)

QUERY: # GI50 lookup, item C[N+](C)(C)CC(=O)N/N=C(\Cc1nc2ccc([N+](=O)[O-])cc2nc1O)C(=O)Nc1nc2ccc([N+](=O)[O-])cc2s1
RESULT: 29.3 µM (inactive)

QUERY: # GI50 lookup, item Cc1cc(S(=O)(=O)Nc2nc(N)nc(N3CCOCC3)n2)c(SCC(=O)O)cc1Cl
RESULT: > 10 µM (inactive)

QUERY: # GI50 lookup, item C=C(C)C(=O)O[C@H]1[C@H]2[C@H](OC(=O)[C@H]2C)[C@H](O)[C@@H](C)[C@@H]2C=CC(=O)[C@]21C
RESULT: 3.83 µM (inactive)

QUERY: # GI50 lookup, item C/C=C(/C)C(=O)O[C@H]1C(C)=C[C@]23C(=O)[C@@H](C=C(COC(C)=O)[C@@H](O)[C@]12O)[C@H]1[C@@H](C[C@H]3C)[C@@]1(C)OC(=O)/C(C)=C\C
RESULT: 2.38 µM (inactive)

QUERY: # GI50 lookup, item COP(=O)(OC)/C(=C/c1c[nH]c2ccccc12)C(=O)O
RESULT: > 100 µM (inactive)

QUERY: # GI50 lookup, item N/C(S)=N/N=C/c1ccc(O)cn1
RESULT: 44.5 µM (inactive)

QUERY: # GI50 lookup, item CN1CCc2c(sc3ncn(N)c(=N)c23)C1
RESULT: > 100 µM (inactive)

QUERY: # GI50 lookup, item COc1ccc(N2C(=O)c3c4c(c5c([nH]c6ncccc65)c3C2=O)CCC(C(C)(C)C)C4)cc1 (stereo unspecified)
RESULT: 84.9 µM (inactive)

QUERY: # GI50 lookup, item Cc1[nH]nc(-c2ccon2)c1N=O
RESULT: 18.6 µM (inactive)

QUERY: # GI50 lookup, item CNC(=S)NN=C1NCCCCN1
RESULT: > 100 µM (inactive)

QUERY: # GI50 lookup, item CC(=O)OCc1cc(CCC(=O)NCCNc2c3ccccc3nc3ccccc23)cc(COC(C)=O)c1O[Si](C)(C)C(C)(C)C
RESULT: 13.7 µM (inactive)

QUERY: # GI50 lookup, item COc1cc(OC)c2c(c1)OC(c1ccccc1)CC2=O (stereo unspecified)
RESULT: > 10 µM (inactive)

QUERY: # GI50 lookup, item COc1ccccc1NC(=S)N/N=C/c1ccccn1
RESULT: 1.77 µM (inactive)

QUERY: # GI50 lookup, item C/C(=N\NC(=N)N)C(CN(C)C)C(c1ccccc1)c1c(O)c2ccccc2oc1=O (stereo unspecified)
RESULT: 72.9 µM (inactive)

QUERY: # GI50 lookup, item CCOC(=O)C1(Cc2ccccc2)Cc2cc3c(cc2C1)CCC3
RESULT: 25.2 µM (inactive)

QUERY: # GI50 lookup, item CC1(c2nc3ccccc3[nH]2)CCC(CO)C(C)(C)O1 (stereo unspecified)
RESULT: > 100 µM (inactive)

QUERY: # GI50 lookup, item CN(C)c1ccc(C(=N/N=C2\C(=O)Nc3ccccc32)c2ccc(N(C)C)cc2)cc1
RESULT: 0.938 µM (active)

QUERY: # GI50 lookup, item Nc1nc(Cl)c(C=O)c(NCC2(CO)CCC2)n1
RESULT: 28.6 µM (inactive)

QUERY: # GI50 lookup, item OC1CSCCSCCCSCCSC1
RESULT: > 100 µM (inactive)

QUERY: # GI50 lookup, item CC(C)NCC(O)c1ccc(O)c2ncccc12 (stereo unspecified)
RESULT: > 100 µM (inactive)

====

# Test system: SK-MEL-28
# assay-procedure: NCI tumour cell line growth inhibition, 48 h
The source made the active and inactive calls. Cut-off read from the data, not from the text of the source: active = GI50 up to about 1.1 µM and inactive = higher.
Outcome (select one): T for active, F for inactive

QUERY: # outcome recorded in this test, key = CCN(CC)c1ccc(C2Nc3ccc4ccccc4c3C3=C2C(=O)CCC3)cc1 (centres undefined)
RESULT: F

QUERY: # outcome recorded in this test, key = Cc1c(S(=O)(=O)N/C(N)=N/c2ccc(Cl)cc2)sc2ccc(Cl)cc12
RESULT: F

QUERY: # outcome recorded in this test, key = Cc1cc(S(=O)(=O)Nc2nc(N)nc(N3CCOCC3)n2)c(SCC(=O)O)cc1Cl
RESULT: F

QUERY: # outcome recorded in this test, key = Oc1cc(O)c2c(c1)OC(c1ccc(O)c(O)c1)C(O)C2c1c(O)cc(O)c2c1OC(c1ccc(O)c(O)c1)C(O)C2 (centres undefined)
RESULT: F

QUERY: # outcome recorded in this test, key = CC(=O)OCC(C)C1=C(O)C(=O)C2(C)C/C=C(/C)CC/C=C(\C)CCC(O)C(C)CCC12 (centres undefined)
RESULT: F

QUERY: # outcome recorded in this test, key = O=C(/C(=C/c1ccc(O)cc1)c1ccccc1)c1ccccc1
RESULT: F

QUERY: # outcome recorded in this test, key = Cc1ccc(Nc2nc(C)c(C(=O)CC(=O)C(=O)Nc3ccc(Cl)cc3)s2)cc1
RESULT: F

QUERY: # outcome recorded in this test, key = CC1=C2O[C@]3(O)C=C2C(=C(O)C1=O)[C@@H]1O[C@H](CC[C@H](C)/C=C(\C)C[C@@H](C)C[C@@H]3C)[C@H](C)[C@H](O)[C@H]1C [KENDOMYCIN]
RESULT: T

QUERY: # outcome recorded in this test, key = C=CCOCC1C2CCC3(OCCO3)C21 (centres undefined)
RESULT: F
